So I've got a bunch of compounds here, and I need their Ki values.
# EXPERIMENTAL_TARGET: UniProt P10415
# MEASUREMENT_PROTOCOL: TR-FRET competitive binding assay, BCL2 WT
# EXPERIMENTAL_PARAMETERS: Ki determined from IC50, read-out: TR_FRET EKI_Bcl2 WT
One number for each entry, in nM.

// known answers, use as guide
[
  {
    "COMPOUND": "Cc1c(C(=O)N(c2ccccc2)c2cnn(C(F)F)c2)cc(-c2cc3c(cc2C(=O)N2Cc4ccccc4C[C@H]2C)CN(C(=O)Cc2ccc(OCCN4CCOCC4)cc2)CC3)n1C [Example 190]",
    "OUTPUT_UNIT": "nM",
    "REPORTED": 0.05
  },
  {
    "COMPOUND": "Cc1c(N(C(=O)c2cc(-c3cc4c(cc3C(=O)N3Cc5ccccc5C[C@H]3CN3CCC5(CC5)C3)CN(C(=O)Cc3ccc(OCCN5CCOCC5)cc3F)CC4)n(C)c2C)c2ccc(O)cc2)cc(C#N)n1C [Example 176]",
    "OUTPUT_UNIT": "nM",
    "REPORTED": 0.03
  },
  {
    "COMPOUND": "Cc1c(N(C(=O)c2cc(-c3cc4c(cc3C(=O)N3Cc5ccccc5C[C@H]3C)CN(C(=O)Cc3ccc(OCCN5CC(F)C5)cc3)CC4)n(C)c2C)c2ccc(O)cc2)cc(C#N)n1C [Example 49]",
    "OUTPUT_UNIT": "nM",
    "REPORTED": 0.1
  },
  {
    "COMPOUND": "Cc1c(C(=O)N(c2ccc(O)cc2)c2cc(C#N)n(C3CC3)c2C)cc(-c2cc3c(cc2C(=O)N2Cc4ccccc4C[C@H]2C)CN(C(=O)Cc2ccc(OCCN4CCOCC4)cc2)CC3)n1C [Example 71]",
    "OUTPUT_UNIT": "nM",
    "REPORTED": 0.15
  }
]

Report Ki for each item below.
1. COc1ncc(N(C(=O)c2cc(-c3cc4c(cc3C(=O)N3Cc5ccccc5C[C@H]3C)CN(C(=O)Cc3ccc(OCCN5CCOCC5)cc3)CC4)n(C)c2C)c2ccc(O)cc2)cc1F [Example 72]
2. Cc1c(N(C(=O)c2cc(-c3cc4c(cc3C(=O)N3Cc5ccccc5C[C@H]3CN3C[C@H]5C[C@H]5C3)CN(C(=O)Cc3ccc(OCCN5CCOCC5)cc3F)CC4)n(C)c2C)c2ccc(O)cc2)cc(C#N)n1C [Example 120]
3. Cc1c(N(C(=O)c2cc(-c3cc4c(cc3C(=O)N3Cc5ccccc5C[C@H]3C)CN(C(=O)Cc3ccc(F)cc3)CC4)n(C)c2C)c2ccc(O)cc2)cc(C#N)n1C [Example 5]
4. Cc1c(N(C(=O)c2cc(-c3cc4c(cc3C(=O)N3Cc5ccccc5C[C@H]3CN3CCCCC3)CN(C(=O)Cc3ccc(OCCN(C)CC5COC5)cc3F)CC4)n(C)c2C)c2ccc(O)cc2)cc(C#N)n1C [Example 103]
5. Cc1c(N(C(=O)c2cc(-c3cc4c(cc3C(=O)N3Cc5ccccc5C[C@H]3C)CN(C(=O)Cc3ccc(OCCN5CCC(F)(F)C5)cc3)CC4)n(C)c2C)c2ccc(O)cc2)cc(C#N)n1C [Example 50]
6. Cc1c(N(C(=O)c2cc(-c3cc4c(cc3C(=O)N3Cc5ccccc5C[C@H]3C)CN(S(=O)(=O)Cc3ccccc3)CC4)n(C)c2C)c2ccc(O)cc2)cc(C#N)n1C [Example 14]
7. Cc1c(C(=O)N(c2ccc(O)cc2)c2cc(C#N)n(C(F)F)c2C)cc(-c2cc3c(cc2C(=O)N2Cc4ccccc4C[C@H]2CN2CCCCC2)CN(C(=O)Cc2ccc(OCCN4CCOCC4)cc2F)CC3)n1C [Example 78]

# output
[0.14, 0.1, 0.18, 0.03, 0.26, 0.9, 0.05]

---

# EXPERIMENTAL_TARGET: BCL2 WT (Homo sapiens (Human), UniProt P10415)
# Sequence (P10415 other isoform, or with tags, fused parts or gaps): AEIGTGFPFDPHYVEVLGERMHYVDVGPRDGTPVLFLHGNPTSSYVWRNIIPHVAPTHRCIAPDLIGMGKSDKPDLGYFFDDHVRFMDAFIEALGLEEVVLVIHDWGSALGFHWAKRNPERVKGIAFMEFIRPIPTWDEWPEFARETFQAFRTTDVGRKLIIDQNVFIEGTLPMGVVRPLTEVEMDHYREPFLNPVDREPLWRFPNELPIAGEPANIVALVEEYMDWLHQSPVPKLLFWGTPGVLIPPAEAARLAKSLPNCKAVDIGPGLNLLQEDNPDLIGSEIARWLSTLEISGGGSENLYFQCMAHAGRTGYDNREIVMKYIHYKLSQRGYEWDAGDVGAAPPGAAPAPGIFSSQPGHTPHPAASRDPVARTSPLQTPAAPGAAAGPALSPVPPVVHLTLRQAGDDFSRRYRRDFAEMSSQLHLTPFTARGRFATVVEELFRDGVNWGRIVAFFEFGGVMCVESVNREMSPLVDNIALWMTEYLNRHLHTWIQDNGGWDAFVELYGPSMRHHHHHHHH
# MEASUREMENT_PROTOCOL: TR-FRET competitive binding assay, BCL2 WT
# EXPERIMENTAL_PARAMETERS: Ki determined from IC50, read-out: TR_FRET EKI_Bcl2 WT
QUANTITY_KIND: Ki (nM)
One number for each entry, in nM.

[
  {
    "COMPOUND": "Cc1c(N(C(=O)c2cc(-c3cc4c(cc3C(=O)N3Cc5ccccc5C[C@H]3C)CN(C(=O)Cc3ccc(OCCN5CCOC6(CC6)C5)cc3)CC4)n(C)c2C)c2ccc(O)cc2)cc(C#N)n1C",
    "EXPERIMENTAL_TARGET": "BCL2 WT (Homo sapiens (Human), UniProt P10415)",
    "OUTPUT_UNIT": "nM",
    "REPORTED": 0.19
  }
]

// below: Ki requested for another compound
Consider Cc1c(N(C(=O)c2cc(-c3cc4c(cc3C(=O)N3Cc5ccccc5C[C@H]3CN3CCCCC3)CN(C(=O)Cc3ccc(OCC(C)N5CCOCC5)cc3F)CC4)n(C)c2C)c2ccc(O)cc2)cc(C#N)n1C (single isomer, unassigned) [Example 135] . Its measured Ki is 0.07

---

# EXPERIMENTAL_TARGET: BCLXL WT (Homo sapiens (Human))
# Sequence (Q07817 other isoform, or with tags, fused parts or gaps): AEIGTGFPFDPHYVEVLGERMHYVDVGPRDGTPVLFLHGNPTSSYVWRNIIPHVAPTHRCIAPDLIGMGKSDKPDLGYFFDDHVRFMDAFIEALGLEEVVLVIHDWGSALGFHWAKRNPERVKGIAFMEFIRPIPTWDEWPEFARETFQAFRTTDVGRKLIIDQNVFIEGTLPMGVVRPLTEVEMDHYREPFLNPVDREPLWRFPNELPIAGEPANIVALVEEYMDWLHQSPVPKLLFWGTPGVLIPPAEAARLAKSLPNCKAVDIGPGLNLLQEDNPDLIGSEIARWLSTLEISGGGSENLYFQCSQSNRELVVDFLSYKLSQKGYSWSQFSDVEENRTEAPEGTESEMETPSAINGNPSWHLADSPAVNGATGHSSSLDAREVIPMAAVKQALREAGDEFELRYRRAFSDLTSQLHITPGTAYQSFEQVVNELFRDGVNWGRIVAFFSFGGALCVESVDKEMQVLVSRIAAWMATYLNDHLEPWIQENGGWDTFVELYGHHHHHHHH
QUANTITY_KIND: pKi
Give bare numbers, as −log10 of the molar value.

// known answers, use as guide
[
  {
    "ENTRY_SMILES": "Cc1c(N(C(=O)c2cc(-c3cc4c(cc3C(=O)N3Cc5ccccc5C[C@H]3CN3CCCCC3)CN(C(=O)Cc3c(F)cc(OCCN5CCOCC5)cc3F)CC4)n(C)c2C)c2ccc(O)cc2)cc(C#N)n1C",
    "REPORTED": 8.72
  },
  {
    "ENTRY_SMILES": "Cc1c(N(C(=O)c2cc(-c3cc4c(cc3C(=O)N3Cc5ccccc5C[C@H]3COCC3CC3)CN(C(=O)Cc3ccc(OCCN5CCOCC5)cc3F)CC4)n(C)c2C)c2ccc(O)cc2)cc(C#N)n1C",
    "REPORTED": 8.35
  },
  {
    "ENTRY_SMILES": "Cc1c(C(=O)N(c2ccc(O)cc2)c2cnn(C(F)F)c2)cc(-c2cc3c(cc2C(=O)N2Cc4ccccc4C[C@H]2C)CN(C(=O)Cc2ccc(OCCN4CCOCC4)cc2F)CC3)n1C",
    "REPORTED": 8.28
  },
  {
    "ENTRY_SMILES": "Cc1c(N(C(=O)c2cc(-c3cc4c(cc3C(=O)N3Cc5ccccc5C[C@H]3C)CN(Cc3cc5ccccc5cn3)CC4)n(C)c2C)c2ccc(O)cc2)cc(C#N)n1C",
    "REPORTED": 8.64
  }
]

Report pKi for each item below.
1. CCn1cc(N(C(=O)c2cc(-c3cc4c(cc3C(=O)N3Cc5ccccc5C[C@H]3C)CN(C(=O)Cc3ccc(OCCN5CCOCC5)cc3)CC4)n(C)c2C)c2ccccc2)c(C)n1
2. Cc1c(C(=O)N(c2ccccc2)c2ccnn2C)cc(-c2cc3c(cc2C(=O)N2Cc4ccccc4C[C@H]2C)CN(C(=O)Cc2ccc(OCCN4CCOCC4)cc2)CC3)n1C

# output
1: 7.54; 2: 7.37

Report pKi for each item below.
1. Cc1c(N(C(=O)c2cc(-c3cc4c(cc3C(=O)N3Cc5ccccc5C[C@H]3CN3CCCCC3)CN(C(=O)COc3ccccc3)CC4)n(C)c2C)c2ccc(O)cc2)cc(C#N)n1C
2. Cc1c(N(C(=O)c2cc(-c3cc4c(cc3C(=O)N3Cc5ccccc5C[C@H]3CN3CCCC3)CN(C(=O)Cc3ccc(OCCN5CCN(CC(F)F)CC5)cc3)CC4)n(C)c2C)c2ccc(O)cc2)cc(C#N)n1C
3. Cc1c(N(C(=O)c2cc(-c3cc4c(cc3C(=O)N3Cc5ccccc5C[C@H]3C)CN(C(=O)Cc3ccc(OCCN5CCN(CC(F)(F)F)CC5)cc3)CC4)n(C)c2C)c2ccc(O)cc2)cc(C#N)n1C
4. Cc1c(N(C(=O)c2cc(-c3cc4c(cc3C(=O)N3Cc5ccccc5C[C@H]3C)CN(C(=O)Cc3ccc(OCCN(C)C)cc3F)CC4)n(C)c2C)c2ccccc2)cc(C#N)n1C
5. Cc1c(N(C(=O)c2cc(-c3cc4c(cc3C(=O)N3Cc5ccccc5C[C@H]3C)CN(C(=O)Cc3ccc(CCN5CCOCC5)cc3)CC4)n(C)c2C)c2ccc(O)cc2)cc(C#N)n1C
6. Cc1c(N(C(=O)c2cc(-c3cc4c(cc3C(=O)N3Cc5ccccc5C[C@H]3CN3CCCCC3)CN(C(=O)Cc3ccc(OCCC5CCOCC5)nc3)CC4)n(C)c2C)c2ccc(O)cc2)cc(C#N)n1C
7. Cc1c(N(C(=O)c2cc(-c3cc4c(cc3C(=O)N3Cc5ccccc5C[C@H]3CN3CCC[C@@H]3C)CN(C(=O)Cc3ccc(OCCN5CCOCC5)cc3F)CC4)n(C)c2C)c2ccc(O)cc2)cc(C#N)n1C
8. Cc1c(N(C(=O)c2cc(-c3cc4c(cc3C(=O)N3Cc5ccccc5C[C@H]3CN3CCCCC3)CN(C(=O)Cc3ccc(OCCN5CCN(CC(F)F)CC5)cc3)CC4)n(C)c2C)c2ccc(O)cc2)cc(C#N)n1C

# output
1: 8.72; 2: 8.39; 3: 8.17; 4: 9.00; 5: 9.00; 6: 8.28; 7: 8.40; 8: 8.15

Report pKi for each item below.
1. Cc1c(C(=O)N(c2ccccc2)c2cccc(C#N)c2)cc(-c2cc3c(cc2C(=O)N2Cc4ccccc4C[C@H]2C)CN(C(=O)Cc2ccc(OCCN4CCOCC4)cc2)CC3)n1C
2. Cc1c(N(C(=O)c2cc(-c3cc4c(cc3C(=O)N3Cc5ccccc5C[C@H]3C)CN(C(=O)Cc3ccc(Cl)cc3F)CC4)n(C)c2C)c2ccc(O)cc2)cc(C#N)n1C

# output
7.86
8.13

Report pKi for each item below.
1. Cc1c(N(C(=O)c2cc(-c3cc4c(cc3C(=O)N3Cc5ccccc5C[C@H]3C)CN(C(=O)Cc3cccc(N5CCN(C)CC5)c3)CC4)n(C)c2C)c2ccccc2)cc(C#N)n1C
2. Cc1ccc(N(C(=O)c2cc(-c3cc4c(cc3C(=O)N3Cc5ccccc5C[C@H]3C)CN(C(=O)Cc3ccc(OCCN5CCOCC5)cc3)CC4)n(C)c2C)c2ccccc2)cc1C#N
3. Cc1c(C(=O)N(c2ccccc2)c2cnn(C)c2)cc(-c2cc3c(cc2C(=O)N2Cc4ccccc4C[C@H]2C)CN(C(=O)Cc2ccc(OCCN(C)C)cc2)CC3)n1C

# output
1. 8.89
2. 8.02
3. 8.06

Consider "Cc1c(N(C(=O)c2cc(-c3cc4c(cc3C(=O)N3Cc5ccccc5C[C@H]3C)CN(C(=O)Cc3ccc(Br)cc3F)CC4)n(C)c2C)c2ccc(O)cc2)cc(C#N)n1C" . Its measured pKi is 8.21
